Every entry's value here was drawn from patent US20250282799A1.

System Name: KRAS (G12D)/CRAF (Homo sapiens (Human), UniProt P01116, G12D)
Sequence (P01116-2 other isoform, or with tags, fused parts or gaps G12D): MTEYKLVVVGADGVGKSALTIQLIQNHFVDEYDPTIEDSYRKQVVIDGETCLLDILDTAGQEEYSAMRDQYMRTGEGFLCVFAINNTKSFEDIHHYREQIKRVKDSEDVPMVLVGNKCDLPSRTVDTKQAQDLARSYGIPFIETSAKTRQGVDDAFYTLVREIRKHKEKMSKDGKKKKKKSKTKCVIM
Procedure Summary: TR-FRET biochemical KRAS:CRAF protein:protein interaction assay, KRAS (G12D)
Condition Set: GMPPNP loaded Biotin-KRAS (G12D), FLAG CRAF RBD; read-out: TR-Fret_PPI KRAS (G12D)/CRAF IC50
Measurement Kind: pIC50
Bear in mind: pIC50 is minus log10 of a mol/L concentration; give just that figure.

Examples with their reported pIC50 follow.
## Task Respond only with pIC50 recorded for [2H]C([2H])(Oc1nc(N2CCOC[C@H]3[C@H](F)[C@H]32)c2cnc(-c3cc(N)cc4ccc(F)c(C#C)c34)c(F)c2n1)[C@@]12CCCN1C[C@H](F)C2
## Result 8.00

## Task Please list pIC50 recorded for the compound [2H]C([2H])(Oc1nc(N2CCOC[C@@H]3[C@@H](Cl)[C@@H]32)c2cnc(-c3cc(N)cc4ccc(F)c(C#C)c34)c(F)c2n1)[C@@]12CCCN1[C@H](C)[C@H](F)C2
## Result 5.52

## Task Give the measured pIC50 for [2H]C([2H])(Oc1nc(N2CC=CC[C@H]3[C@H](F)[C@H]32)c2cnc(-c3cc(N)cc4cc(F)c(F)c(C#C)c34)c(F)c2n1)[C@@]12CCCN1C[C@H](F)C2
## Result 7.56

## Task # return recorded pIC50 for input [2H]C([2H])(Oc1nc(N2CCCC[C@H]3[C@@H](F)[C@H]32)c2cnc(-c3cc(N)cc4cc(F)c(F)c(C#C)c34)c(F)c2n1)[C@@]12CCCN1C[C@H](F)C2
## Result 6.37

Consider now this further compound.
## Task Check the records and state pIC50 for [2H]C([2H])(Oc1nc(N2CCOC[C@H]3[C@H](F)[C@H]32)c2cnc(-c3cc(N)cc4cc(F)c(F)c(C#C)c34)c(F)c2n1)[C@@]12CCCN1C[C@H](F)C2
## Result 7.94
